- Test system: HUVEC primary endothelial cells
- Test summary: HUVEC proliferation assay (CyQUANT Direct)
- Type: cell-based
- Test conditions: Homo sapiens, 72 h, 3 days incubation
- Procedure: HUVEC Proliferation Assay Proliferation of HUVEC primary endothelial cells was used as cell-based mechanistical assay.^25 Applying the CyQUANT@ Direct Cell Proliferation Assay (Invitrogen C35011) which is based on a cell-permeant fluorescent DNA-binding dye, DNA content is used as a direct measure for cell number. […] Inhibitory values (IC50) were determined using the program ASSAY ANALYZER® from GeneData (Basel, Switzerland).
Catalogue of IC50 readings, one per entry.

Would you please look over these solved cases?
>  <Molecule>
O=C1CCC(N2C(=O)c3ccc(NC(=O)COCCOCCOCCOCCOCCNC(=O)c4cc5cc(N6CC[C@](O)(C(=O)NCc7cc(F)cc(F)c7)C6=O)ccc5[nH]4)cc3C2=O)C(=O)N1 (stereo partly drawn) [Compound A55]

>  <Test value>
> 30 µM

$$$$
>  <Molecule>
Cc1ncsc1-c1ccc(CNC(=O)[C@@H]2C[C@@H](O)CN2C(=O)[C@@H](NC(=O)COCCOCCNC(=O)c2cc3cc(N4CCC(O)(C(=O)NCc5cc(F)cc(F)c5)C4=O)ccc3[nH]2)C(C)(C)C)cc1 (stereo partly drawn) [Compound A6]

>  <Test value>
30 µM

$$$$

[ask] Consider the molecule shown here: O=C1CCC(N2C(=O)c3cccc(NCCOCCOCCOCCOCCOCCNC(=O)c4cc5cc(N6CCC(O)(C(=O)NCc7cc(F)cc(F)c7)C6=O)ccc5[nH]4)c3C2=O)C(=O)N1 (stereo not drawn) [Compound A1] What is its recorded IC50?
[reply] 25 µM
